The reported numbers originate from ChEMBL document CHEMBL1134771.

Entries and their measured EC50 follow.
System: FM3A
Assay: in vitro cytotoxicity against mouse mammary tumor in cell culture.
Format: functional, cell-based

Sample answers from the record:
| Compound string | Subject of test | Measured endpoint | Obs value |
| --- | --- | --- | --- |
| CC(C)(C)C1CCC2(CC1)OOCCCOO2 | FM3A | EC50 | 30 µM |
| C1CCCCCC2(CCCCC1)OOCCCCCOO2 | FM3A | EC50 | 12 µM |

Data request: Report EC50 for `C1CCCCCC2(CCCCC1)OOCCCCCCOO2` please.
Data returned: 16 µM
